Data provenance is patent US7544698B2.

target: human histamine H4 receptor (Homo sapiens, UniProt Q9H3N8); construct: cell membranes; assay: Binding Assay on Recombinant Human Histamine H4 Receptor (3H-histamine competition, membranes of transfected SK-N-MC or COS7 cells); settings: competition with 3H-histamine (5 nM ligand, KD 5 nM), Cheng-Prusoff; mean of results; > = solubility limit or highest concentration tested
Sequence (Q9H3N8 whole entry): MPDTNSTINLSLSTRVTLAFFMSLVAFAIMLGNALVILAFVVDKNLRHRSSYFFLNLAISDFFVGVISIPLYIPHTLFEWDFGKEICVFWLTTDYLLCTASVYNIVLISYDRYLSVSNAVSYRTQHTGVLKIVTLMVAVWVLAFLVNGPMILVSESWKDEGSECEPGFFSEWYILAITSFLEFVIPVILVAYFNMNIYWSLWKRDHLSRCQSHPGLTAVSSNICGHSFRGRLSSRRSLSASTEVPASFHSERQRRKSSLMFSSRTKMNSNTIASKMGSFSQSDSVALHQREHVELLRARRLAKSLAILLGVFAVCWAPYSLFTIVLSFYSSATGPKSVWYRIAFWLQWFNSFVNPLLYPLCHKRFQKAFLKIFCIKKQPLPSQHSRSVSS
Binary call on Ki with cut-off 0.4 µM: strictly below means 1, and equality or higher means -1.

INPUT: For this molecule, is Ki lower than 0.4 µM? O=C(c1nc2cc(Cl)ccc2[nH]1)N1C[C@H]2CCCN[C@H]2C1 (relative stereo) [Example 7]
OUTPUT: 1

INPUT: Lab note: Ki threshold 0.4 µM. Does this molecule come in strictly under it? CN[C@H]1CCN(C(=O)c2cc3cccc(C)c3[nH]2)C1 [Example 18]
OUTPUT: -1

* * *

target: human histamine H4 receptor (Homo sapiens, UniProt Q9H3N8); construct: cell membranes; experiment: Binding Assay on Recombinant Human Histamine H4 Receptor (3H-histamine competition, membranes of transfected SK-N-MC or COS7 cells); conditions: competition with 3H-histamine (5 nM ligand, KD 5 nM), Cheng-Prusoff; mean of results; > = solubility limit or highest concentration tested
Counter-ions that a name gives are not always drawn.
measurement label: pKi
API: returns pKi as number; meaning -log10 of concentration in mol/L.

Previously resolved entries follow.
[[record]]
compound = "CN[C@@H]1CCN(C(=O)c2cc3cc(F)ccc3[nH]2)C1 [Example 17]"
experimental_target = "human histamine H4 receptor (Homo sapiens, UniProt Q9H3N8)"
reported = 7.42

[[record]]
compound = "CN[C@@H]1CCN(C(=O)c2cc3cccc(C)c3[nH]2)C1 [Example 19]"
experimental_target = "human histamine H4 receptor (Homo sapiens, UniProt Q9H3N8)"
reported = 6.82


INPUT: Query the reported pKi for human histamine H4 receptor (Homo sapiens, UniProt Q9H3N8); item: O=C(c1cc2ccccc2[nH]1)N1C[C@H]2CCCN[C@H]2C1 (relative stereo) [Example 5, trifluoroacetic acid salt]
OUTPUT: 7.40

INPUT: Test system human histamine H4 receptor (Homo sapiens, UniProt Q9H3N8); read-out pKi; what value for CNC1CCN(C(=O)c2cc3ccccc3[nH]2)C1 (stereo not drawn) [Example 3, trifluoroacetic acid salt] ?
OUTPUT: 6.37

INPUT: Lab request: please report pKi under test system human histamine H4 receptor (Homo sapiens, UniProt Q9H3N8) for CN[C@H]1CCN(C(=O)c2cc3cc(Cl)ccc3[nH]2)C1 [Example 9]
OUTPUT: 6.27

INPUT: Find pKi (human histamine H4 receptor (Homo sapiens, UniProt Q9H3N8)) for the entry O=C(c1cc2c(F)cc(F)cc2[nH]1)N1C[C@H]2CCCN[C@H]2C1 (relative stereo) [Example 15, hydrochloride salt]
OUTPUT: 6.66

INPUT: What pKi appears in the records for this compound with human histamine H4 receptor (Homo sapiens, UniProt Q9H3N8)? NC1CCN(C(=O)c2cc3cc(Cl)ccc3[nH]2)C1 (stereo not drawn) [Example 24, hydrochloride salt]
OUTPUT: 6.72

INPUT: Give the reported pKi for CN[C@@H]1CCN(C(=O)c2cc3cc(C)ccc3[nH]2)C1 [Example 21] (system: human histamine H4 receptor (Homo sapiens, UniProt Q9H3N8)).
OUTPUT: 6.55

INPUT: Fill in the recorded pKi for this compound, with human histamine H4 receptor (Homo sapiens, UniProt Q9H3N8) as test system: CN(C)C1CCN(C(=O)c2nc3ccccc3[nH]2)C1 (stereo not drawn) [Example 31]
OUTPUT: 5.09

INPUT: Report pKi for CN[C@@H]1CCN(C(=O)c2cc3c(F)cc(F)cc3[nH]2)C1 [Example 23] tested on human histamine H4 receptor (Homo sapiens, UniProt Q9H3N8).
OUTPUT: 6.17

INPUT: Identify the measured pKi of CN(C)C1CCN(C(=O)c2cc3ccccc3[nH]2)C1 (stereo not drawn) [Example 26] for human histamine H4 receptor (Homo sapiens, UniProt Q9H3N8).
OUTPUT: 5.05

* * *

molecular target: human histamine H4 receptor (Homo sapiens, UniProt Q9H3N8); construct: cell membranes; test: Binding Assay on Recombinant Human Histamine H4 Receptor (3H-histamine competition, membranes of transfected SK-N-MC or COS7 cells); details: competition with 3H-histamine (5 nM ligand, KD 5 nM), Cheng-Prusoff; mean of results; > = solubility limit or highest concentration tested
pKi: −log10 of the molar value. Counter-ions that a name gives are not always drawn.
measurement label: pKi

# example entries with known answers
[[record]]
molecule = "O=C(c1cc2cc(Cl)ccc2[nH]1)N1C[C@@H]2CCCN[C@@H]2C1 [Example 12, hydrochloride salt]"
experimental_target = "human histamine H4 receptor (Homo sapiens, UniProt Q9H3N8)"
reported = "< 5.00"

[[record]]
molecule = "O=C(c1cc2cccc([N+](=O)[O-])c2[nH]1)N1C[C@H]2CCCN[C@H]2C1 (relative stereo) [Example 14, hydrochloride salt]"
experimental_target = "human histamine H4 receptor (Homo sapiens, UniProt Q9H3N8)"
reported = "< 5.00"

[[record]]
molecule = "CN[C@H]1CCN(C(=O)c2cc3c(F)cc(F)cc3[nH]2)C1"
experimental_target = "human histamine H4 receptor (Homo sapiens, UniProt Q9H3N8)"
reported = "< 5.30"


Lab note: next molecule to report on.
INPUT: Under human histamine H4 receptor (Homo sapiens, UniProt Q9H3N8): pKi value of "CN[C@H]1CCN(C(=O)c2cc3cc(C)ccc3[nH]2)C1" ?
OUTPUT: < 5.00
